TARGET OR SYSTEM: Myc proto-oncogene protein (Homo sapiens) (UniProt P01106)
Sequence (P01106 whole entry, looked up): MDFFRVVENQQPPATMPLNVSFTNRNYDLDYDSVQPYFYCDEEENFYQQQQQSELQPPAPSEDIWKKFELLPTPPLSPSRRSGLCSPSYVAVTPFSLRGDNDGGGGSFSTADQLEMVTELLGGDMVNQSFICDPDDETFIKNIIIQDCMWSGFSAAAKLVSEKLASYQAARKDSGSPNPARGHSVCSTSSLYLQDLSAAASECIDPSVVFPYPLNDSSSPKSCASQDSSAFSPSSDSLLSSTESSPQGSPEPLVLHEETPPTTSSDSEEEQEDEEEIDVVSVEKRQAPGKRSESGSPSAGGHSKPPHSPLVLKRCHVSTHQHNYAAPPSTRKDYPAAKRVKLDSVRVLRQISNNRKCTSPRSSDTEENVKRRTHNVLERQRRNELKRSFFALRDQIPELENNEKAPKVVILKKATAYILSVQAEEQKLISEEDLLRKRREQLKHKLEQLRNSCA
ASSAY PROTOCOL: ATG_Myc_CIS: Attagene CIS-FACTORIAL HepG2 Assay for human Myelocytomatosis (Myc) Proto-Oncogene Transcription Factor (AID 2282990)
MEASUREMENT CONTEXT: HepG2, Attagene cis-reporter transcription factor activity; actives raise or lower the signal
Calls of active or inactive are those of the source. The calls were made as follows: active = hit-call score of the fitted dose curve at least 0.9, where 1 is the maximum; inactive = score below 0.9.
Labels: YES for active, NO for inactive

MOLECULE SMILES	LABEL VALUE
Cc1ccc(OP(=O)(Oc2ccc(C)cc2C)Oc2ccc(C)cc2C)c(C)c1	NO
[F][Sn]([c]1ccccc1)([c]1ccccc1)[c]1ccccc1	YES
OC(c1ccc(Cl)cc1)(c1ccc(Cl)cc1)c1cccnc1	NO
